System: M14 melanoma
experiment.description: NCI-60 one-dose screen, 48 h (100 = growth as untreated, 0 = no growth, -100 = all killed)
measurement.setup: 10 µM unless noted
Method: Growth inhibition of the M14 human tumor cell line is measured as a screen for anti-cancer activity. Cells are grown in 96 well plates and exposed to the test compound for 48 hours. Compounds are tested at a single concentration, which is 10^-5 M for most compounds. The reported endpoint is percent growth (GI% or GIPRCNT), where numbers from 0 - 100% represent growth inhibition, and numbers from -100% - 0 represent cell death. For example, a value of 40 represents 60% growth inhibition. […]
Compounds without any hit were thinned out: in the full panel of roughly 83,000, 20% have a hit.
The threshold is inclusive: growth of exactly 30% counts as t; values below receive f.

[Q] Kindly determine if growth recorded for CO[C@H](C(=O)O)[C@@H]1Cc2cc3cc(OC4CC(OC5CC(O)C(O)C(C)O5)C(O)C(C)O4)c(C)c(O)c3c(O)c2C(=O)[C@H]1OC1CC(OC2CC(OC3CC(C)(O)C(O)C(C)O3)C(O)C(C)O2)C(O)C(C)O1 (stereo partly drawn) is above or exactly 30%.
[A] f

[Q] Kindly determine if growth recorded for Cc1cccc(N2CCN(C(C)C#N)CC2)c1 (stereo not drawn) is above or exactly 30%.
[A] t

[Q] Kindly determine if growth recorded for ClCCN(CCCl)c1nc(Cl)c(C2CC(c3ccccc3)=NN2c2cc(Cl)cc(Cl)c2)s1 (stereo not drawn) is above or exactly 30%.
[A] t

[Q] Kindly determine if growth recorded for CCOc1ccc(/C=C/[N+](=O)[O-])cc1 is above or exactly 30%.
[A] t

[Q] Kindly determine if growth recorded for COC1OC(CO)C(O)C(O)[CH]1[Hg][O]C(C)=O (stereo not drawn) is above or exactly 30%.
[A] t

[Q] Kindly determine if growth recorded for C/C(=C\c1cc(C(F)(F)F)nn1CCNC(=O)OC(C)(C)C)[C@@H]1C[C@@H]2O[C@]2(C)CCC[C@H](C)[C@H](O)[C@@H](C)C(=O)C(C)(C)[C@@H](O)CC(=O)O1 is above or exactly 30%.
[A] t

[Q] Kindly determine if growth recorded for CC(=O)O[C@H](C[C@H](C(C)C)N(C)C(=O)[C@@H](NC(=O)[C@H]1CCCCN1C)C(C)(C)C)c1nc(C(=O)N[C@@H](Cc2ccccc2)C[C@H](C)C(=O)O)cs1 is above or exactly 30%.
[A] f

[Q] Kindly determine if growth recorded for CC12CC=CCC1CCC1C2CCC2(C)C(c3ccc(=O)oc3)CCC12O (stereo not drawn) is above or exactly 30%.
[A] f

[Q] Kindly determine if growth recorded for COc1ccc(/C=C\c2cc(OC)c(OC)c(OC)c2)cc1NS(=O)(=O)c1ccc(Cl)cc1 is above or exactly 30%.
[A] t

[Q] Kindly determine if growth recorded for COc1ccc(/C=C\c2cc(OC)c(OC)c(OC)c2)cc1OCC(=O)Nc1nc2ccc(F)cc2s1 is above or exactly 30%.
[A] t

More entries:
[Q] Kindly determine if growth recorded for Cc1cc(C)c(CBr)c(C)c1 is above or exactly 30%.
[A] t

---

System: LOX IMVI melanoma
experiment.description: NCI-60 one-dose screen, 48 h (100 = growth as untreated, 0 = no growth, -100 = all killed)
measurement.setup: 10 µM unless noted
The panel holds about 83,000 compounds, 20% with a hit somewhere; the sample as a whole holds those more often.
The threshold is inclusive: growth of exactly 40% counts as Criterion met; values below receive Criterion not met.

[Q] Kindly determine if growth recorded for COC(=O)[C@@]1(O)C[C@H]2O[C@]1(C)n1c3ccccc3c3c4c(c5c6ccccc6n2c5c31)C(=O)NC4 is above or exactly 40%.
[A] Criterion not met

[Q] Kindly determine if growth recorded for O=[N+]([O-])/C=C\c1ccc(Cl)c(Cl)c1 is above or exactly 40%.
[A] Criterion not met

[Q] Kindly determine if growth recorded for C[C@@H]1O[C@@H](O[C@H]2C[C@@H](O)[C@]3(CO)C4C(CC[C@]3(O)C2)[C@@]2(O)CC[C@H](C3=CC(=O)OC3)[C@@]2(C)C[C@H]4O)[C@H](O)[C@H](O)[C@H]1O (stereo partly specified) is above or exactly 40%.
[A] Criterion not met

[Q] Kindly determine if growth recorded for Cc1cc(N(CCCl)CCCl)ccc1C=Nc1ccc(-c2csc(Cc3ccccc3)n2)cc1 is above or exactly 40%.
[A] Criterion met

[Q] Kindly determine if growth recorded for COC(=O)[C@@H](C)C[C@H](Cc1ccccc1)NC(=O)c1csc([C@@H](C[C@H](C(C)C)N(C)C(=O)[C@@H](NC(=O)[C@H]2CCCCN2C)C(C)C)OC(C)=O)n1 is above or exactly 40%.
[A] Criterion not met

[Q] Kindly determine if growth recorded for O=C1C(N2CC2)=C(N2CC2)C(=O)C(N2CC2)=C1N1CC1 is above or exactly 40%.
[A] Criterion not met

[Q] Kindly determine if growth recorded for CC1(C)N=C(N)N=C(N)N1c1cccc(CCCCc2ccc(Cl)c(S(=O)(=O)F)c2)c1 is above or exactly 40%.
[A] Criterion not met

[Q] Kindly determine if growth recorded for COC(=O)CCC1=C(C)c2cc3[n-]c(cc4nc(cc5[n-]c(cc1n2)c(CCC(=O)OC)c5C)C=C4C)cc3C.[Cd+2] is above or exactly 40%.
[A] Criterion met

[Q] Kindly determine if growth recorded for CC[C@H](C)[C@H](NC(=O)[C@H]1CCCCN1C)C(=O)N(C)[C@H](C[C@@H](OC(C)=O)c1nc(C(=O)NC23CC(C(=O)OC)(C2)C3)cs1)C(C)C is above or exactly 40%.
[A] Criterion not met

[Q] Kindly determine if growth recorded for CNC12C3C4C1C1C2C3C41C(=O)N[C@H](C(=O)N(C)[C@H](C[C@@H](OC(C)=O)c1nc(C(=O)N[C@@H](Cc2ccccc2)C[C@H](C)C(=O)OC)cs1)C(C)C)C1CC1 (stereo partly specified) is above or exactly 40%.
[A] Criterion not met

More entries:
[Q] Kindly determine if growth recorded for O=C1CNC(c2ccccc2)c2cc(Cl)ccc2N1 (stereo unspecified) is above or exactly 40%.
[A] Criterion met

[Q] Kindly determine if growth recorded for COc1cccc2c1c(C(=O)C(=O)Nc1ccn[nH]1)cn2Cc1ccc(F)cc1 is above or exactly 40%.
[A] Criterion met

[Q] Kindly determine if growth recorded for CC12CCC3C(CCC4Cc5[nH]c6ccccc6c5CC43C)C1CCC2O (stereo unspecified) is above or exactly 40%.
[A] Criterion not met

[Q] Kindly determine if growth recorded for CC1=C2[C@@H](CC1)[C@]1(C)O[C@@](C(C)C)(C[C@H]1O)[C@H]2OC(=O)C1CC1c1ccccc1 (stereo partly specified) is above or exactly 40%.
[A] Criterion met

[Q] Kindly determine if growth recorded for CCCCCCCCCCCCCCCCCCOc1ccccc1COP(=O)(O)OOCC[N+](C)(C)C is above or exactly 40%.
[A] Criterion not met
